# Experimental setup: in n-butanol, 303.15 K

# Structure notation, solubility (mole fraction)
data = [
    ("COc1ccc([C@@H]2CC(=O)c3c(O)cc(O[C@@H]4O[C@H](CO[C@@H]5O[C@@H](C)[C@H](O)[C@@H](O)[C@H]5O)[C@@H](O)[C@H](O)[C@H]4O)cc3O2)cc1O", 0.000359),
]

---

# Experimental setup: in ethanol, 303.15 K

# Structure notation, solubility (mole fraction)
measured = [
    ("COc1ccc([C@@H]2CC(=O)c3c(O)cc(O[C@@H]4O[C@H](CO[C@@H]5O[C@@H](C)[C@H](O)[C@@H](O)[C@H]5O)[C@@H](O)[C@H](O)[C@H]4O)cc3O2)cc1O", "3.95e-05"),
]

---

# Experimental setup: in water, 313.15 K

# Structure notation, solubility (mole fraction)
records = [
    ("COc1ccc([C@@H]2CC(=O)c3c(O)cc(O[C@@H]4O[C@H](CO[C@@H]5O[C@@H](C)[C@H](O)[C@@H](O)[C@H]5O)[C@@H](O)[C@H](O)[C@H]4O)cc3O2)cc1O", "1.61e-07"),
]

---

# Experimental setup: in ethanol, 333.15 K

# Structure notation, solubility (mole fraction)
rows = [
    ("COc1ccc([C@@H]2CC(=O)c3c(O)cc(O[C@@H]4O[C@H](CO[C@@H]5O[C@@H](C)[C@H](O)[C@@H](O)[C@H]5O)[C@@H](O)[C@H](O)[C@H]4O)cc3O2)cc1O", "8.45e-05"),
]

---

# Experimental setup: in PEG-400, 303.15 K
Metric name: solubility (mole fraction)

# Structure notation, Metric name, Recorded measurement
data = [
    ("COc1ccc([C@@H]2CC(=O)c3c(O)cc(O[C@@H]4O[C@H](CO[C@@H]5O[C@@H](C)[C@H](O)[C@@H](O)[C@H]5O)[C@@H](O)[C@H](O)[C@H]4O)cc3O2)cc1O", "solubility (mole fraction)", 0.00749),
]

---

# Experimental setup: in propylene glycol, 313.15 K

# Structure notation, solubility (mole fraction)
data = [
    ("COc1ccc([C@@H]2CC(=O)c3c(O)cc(O[C@@H]4O[C@H](CO[C@@H]5O[C@@H](C)[C@H](O)[C@@H](O)[C@H]5O)[C@@H](O)[C@H](O)[C@H]4O)cc3O2)cc1O", 0.000886),
]

---

# Experimental setup: in propylene glycol, 303.15 K
Metric name: solubility (mole fraction)

# Structure notation, Metric name, Recorded measurement
data = [
    ("COc1ccc([C@@H]2CC(=O)c3c(O)cc(O[C@@H]4O[C@H](CO[C@@H]5O[C@@H](C)[C@H](O)[C@@H](O)[C@H]5O)[C@@H](O)[C@H](O)[C@H]4O)cc3O2)cc1O", "solubility (mole fraction)", 0.000647),
]

---

# Experimental setup: in ethanol, 323.15 K

# Structure notation, solubility (mole fraction)
rows = [
    ("COc1ccc([C@@H]2CC(=O)c3c(O)cc(O[C@@H]4O[C@H](CO[C@@H]5O[C@@H](C)[C@H](O)[C@@H](O)[C@H]5O)[C@@H](O)[C@H](O)[C@H]4O)cc3O2)cc1O", "6.56e-05"),
]

---

# Experimental setup: in PEG-400, 298.15 K
Metric name: solubility (mole fraction)

# Structure notation, Recorded measurement
measured = [
    ("COc1ccc([C@@H]2CC(=O)c3c(O)cc(O[C@@H]4O[C@H](CO[C@@H]5O[C@@H](C)[C@H](O)[C@@H](O)[C@H]5O)[C@@H](O)[C@H](O)[C@H]4O)cc3O2)cc1O", 0.00633),
]
